- Test system: 327498-153-R-J2-PDC multicell spheroid viability;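 further: spheroids exposed to agents for 7 days; 100% = DMSO vehicle control viability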
- assay_summary: Anticancer human tumor 327498-153-R-J2-PDC patient-derived uterine carcinosarcoma cell line growth inhibition [IpAb]
- recorded_conditions: second compound 0.1 µM; first compound 0.0949 µM; hits give low values

compound	assay_system	measurement_units	viability, T/C
Cn1cnc2c(F)c(Nc3ccc(Br)cc3Cl)c(C(=O)NOCCO)cc21 + CC(C)NCC(C(=O)N1CCN(c2ncnc3c2C(C)CC3O)CC1)c1ccc(Cl)cc1	327498-153-R-J2-PDC multicell spheroid viability	%	66.2
CC(C)(C)c1cnc(CSc2cnc(NC(=O)C3CCNCC3)s2)o1 + CCN1CCN(Cc2ccc(Nc3ncc(F)c(-c4cc(F)c5nc(C)n(C(C)C)c5c4)n3)nc2)CC1	327498-153-R-J2-PDC multicell spheroid viability	%	48.4
CC(=O)c1c(C)c2cnc(Nc3ccc(N4CCNCC4)cn3)nc2n(C2CCCC2)c1=O + CCN1CCN(Cc2ccc(Nc3ncc(F)c(-c4cc(F)c5nc(C)n(C(C)C)c5c4)n3)nc2)CC1	327498-153-R-J2-PDC multicell spheroid viability	%	59.9
CC(C)(C)c1cnc(CSc2cnc(NC(=O)C3CCNCC3)s2)o1 + CC(C)NCC(C(=O)N1CCN(c2ncnc3c2C(C)CC3O)CC1)c1ccc(Cl)cc1	327498-153-R-J2-PDC multicell spheroid viability	%	69.1
Cn1cnc2c(F)c(Nc3ccc(Br)cc3Cl)c(C(=O)NOCCO)cc21 + CCN1CCN(Cc2ccc(Nc3ncc(F)c(-c4cc(F)c5nc(C)n(C(C)C)c5c4)n3)nc2)CC1	327498-153-R-J2-PDC multicell spheroid viability	%	39.5
CC(=O)c1c(C)c2cnc(Nc3ccc(N4CCNCC4)cn3)nc2n(C2CCCC2)c1=O + CC(C)NCC(C(=O)N1CCN(c2ncnc3c2C(C)CC3O)CC1)c1ccc(Cl)cc1	327498-153-R-J2-PDC multicell spheroid viability	%	65.9
